assay: in vivo; conditions: rat, heart, po
Where a name gives a salt, the structure may show the parent alone.
quantity: Cmax (ng/g)
Just the number please, in ng/g, no unit attached.

I am curious: what Cmax value has been reported for COc1cccc2c1C(=O)c1c(O)c3c(c(O)c1C2=O)C[C@@](O)(C(=O)CO)C[C@@H]3O[C@H]1C[C@H](N)[C@H](O)[C@H](C)O1 [Doxo, Doxorubicin hydrochloride] ?
17200

* * *

experiment: in vivo; settings: rat, liver, po
Where a name gives a salt, the structure may show the parent alone.
quantity: Cmax (ng/g)
Reply numerically in ng/g, unit not repeated.

Which Cmax reading was recorded for the compound COc1cccc2c1C(=O)c1c(O)c3c(c(O)c1C2=O)C[C@@](O)(C(=O)CO)C[C@@H]3O[C@H]1C[C@H](N)[C@H](O)[C@H](C)O1 [Doxo, Doxorubicin hydrochloride] ?
17400

Just for reference, patent US20130323314A1 is where these values come from.
